Test system: E. coli 1346
PROTOCOL_TEXT: Antibacterial activity of the products per se, serial dilution method in liquid medium (Test E)
Type: cell-based
PROTOCOL_CONDITIONS: Table 4; test E, product per se
Where a name gives a salt, the structure may show the parent alone.
Mark each entry satisfied if its MIC E. coli 1346 (E) sits below 8 µg/mL, and not satisfied for all others.

MOLECULE	ASSAY_TARGET	QUALITATIVE_LABEL
Cn1nnnc1SCC1=C(C(=O)O)N2C(=O)[C@@H]3[C@H]2[C@H](C1)CN3CC(=O)Nc1ccc(O)cc1 [61(b), sodium salt]	E. coli 1346	not satisfied
[N-]=[N+]=NCC1=C(C(=O)O)N2C(=O)[C@@H]3[C@H]2[C@H](C1)CN3C(=O)Nc1ccc(O)cc1 [Example 82, sodium salt]	E. coli 1346	not satisfied
CNC(=O)OCC1=C(C(=O)O)N2C(=O)[C@@H]3[C@H]2[C@H](C1)CN3C(=O)C(F)(F)F [98(b), sodium salt]	E. coli 1346	satisfied
O=C([O-])C[n+]1ccc(SCC2=C(C(=O)O)N3C(=O)[C@@H]4[C@H]3[C@H](C2)CN4C(=O)NCc2ccccc2)cc1 [Example 51, sodium salt]	E. coli 1346	not satisfied
CC(=O)N1C[C@H]2CC(CSc3nnnn3CC(=O)Nc3ccc(O)cc3)=C(C(=O)O)N3C(=O)[C@@H]1[C@@H]23 [78(a), sodium salt]	E. coli 1346	satisfied
CC(=O)N1C[C@H]2OC(CSc3nnnn3CC(=O)NC3CC3)=C(C(=O)O)N3C(=O)[C@@H]1[C@@H]23 [32(d), sodium salt]	E. coli 1346	not satisfied
O=CN1C[C@H]2OC(CSc3nnnn3CC(=O)NC3CC3)=C(C(=O)O)N3C(=O)[C@@H]1[C@@H]23 [Example 37, sodium salt]	E. coli 1346	not satisfied
O=C(Nc1ccc(O)cc1)OCC1=C(C(=O)O)N2C(=O)[C@H]3NC[C@@H](C1)[C@H]32 [Example 89]	E. coli 1346	satisfied
CNC(=O)Cn1nnnc1SCC1=C(C(=O)O)N2C(=O)[C@@H]3[C@H]2[C@H](C1)CN3C(=O)C(F)(F)F [74(b), sodium salt]	E. coli 1346	satisfied
Cn1nnnc1SC1=C(C(=O)O)N2C(=O)[C@@H]3[C@H]2[C@H](C1)CN3C(=O)C(F)(F)F [Example 3(ab), sodium salt]	E. coli 1346	not satisfied
NC(=O)Cn1nnnc1SCC1=C(C(=O)O)N2C(=O)[C@@H]3[C@H]2[C@H](C1)CN3C(=O)C(F)(F)F [70(b), sodium salt]	E. coli 1346	satisfied
O=C(O)C1=C(CSc2ccncc2)S[C@@H]2CN[C@@H]3C(=O)N1[C@@H]32 [40(f)]	E. coli 1346	not satisfied

###

Test system: E. coli 1346
PROTOCOL_TEXT: Antibacterial activity of the products per se, serial dilution method in liquid medium (Test E)
Format: cell-based
PROTOCOL_CONDITIONS: Table 3; product per se, liquid medium
Structures can show the parent of a compound that is named as a salt.
Mark each entry TRUE if its MIC E. coli 1346 sits below 30 µg/mL, and FALSE for all others.

COMPOUND	QUALITATIVE_LABEL
CS(=O)(=O)OC1=C(C(=O)O)N2C(=O)[C@@H]3[C@H]2[C@H](C1)CN3C(=O)NCc1ccc(S(N)(=O)=O)cc1 [9(h), sodium salt]	FALSE
Cn1nnnc1SC1=C(C(=O)O)N2C(=O)[C@@H]3[C@H]2[C@H](C1)CN3C(=O)NCc1ccc(O)c(O)c1 [3(e)]	FALSE
CS(=O)(=O)OC1=C(C(=O)O)N2C(=O)[C@@H]3[C@H]2[C@H](C1)CN3C(=O)NCc1cccs1 [9(c), sodium salt]	TRUE
Cc1nnc(SC2=C(C(=O)O)N3C(=O)[C@H]4NC[C@@H](C2)[C@H]43)s1	TRUE
Cn1nnnc1SCC1=C(C(=O)O)N2C(=O)[C@H]3NC[C@@H](C1)[C@H]32	TRUE
CS(=O)(=O)OC1=C(C(=O)O)N2C(=O)[C@@H]3[C@H]2[C@H](C1)CN3C(=O)Nc1ccc(C(N)=O)cc1 [9(b), sodium salt]	TRUE
Cn1nnnc1SCC(=O)N1C[C@H]2CC(OS(C)(=O)=O)=C(C(=O)O)N3C(=O)[C@@H]1[C@@H]23 [11(b), sodium salt]	TRUE
CS(=O)(=O)OC1=C(C(=O)O)N2C(=O)[C@@H]3[C@H]2[C@H](C1)CN3C(=O)Nc1ccc(O)cc1 [9(a), sodium salt]	FALSE
CC(=O)N1C[C@H]2CC(CSc3nnnn3C)=C(C(=O)O)N3C(=O)[C@@H]1[C@@H]23 [Example 19(a), sodium salt]	TRUE
Cn1nnnc1SC1=C(C(=O)O)N2C(=O)[C@H]3NC[C@@H](C1)[C@H]32	TRUE
CS(=O)(=O)OC1=C(C(=O)[O-])N2C(=O)[C@@H]3[C@H]2[C@H](C1)CN3C(=O)C[n+]1cccc(C(N)=O)c1	FALSE
Cn1nnnc1SCC1=C(C(=O)O)N2C(=O)[C@@H]3[C@H]2[C@H](C1)CN3C(=O)Nc1ccc(O)cc1 [18(a), sodium salt]	FALSE
CO/N=C(\C(=O)N1C[C@H]2CC(Sc3nnnn3C)=C(C(=O)O)N3C(=O)[C@@H]1[C@@H]23)c1csc(N)n1 [Example 7, sodium salt]	FALSE
CS(=O)(=O)OC1=C(C(=O)O)N2C(=O)[C@@H]3[C@H]2[C@H](C1)CN3C(=O)NC1CCSC1=O (mixture of isomers) [9(f), sodium salt]	FALSE
Cc1nnc(SC2=C(C(=O)O)N3C(=O)[C@@H]4[C@H]3[C@H](C2)CN4C(=O)Nc2ccc(O)cc2)s1 [3(j), sodium salt]	FALSE
Cn1nnnc1SC1=C(C(=O)O)N2C(=O)[C@@H]3[C@H]2[C@H](C1)CN3C(=O)Nc1ccc(O)cc1 [Example 3(a), sodium salt]	FALSE
C[n+]1ccc(SCC2=C(C(=O)[O-])N3C(=O)[C@H]4NC[C@@H](C2)[C@H]43)cc1	TRUE
Cc1ccc(S(=O)(=O)OC2=C(C(=O)O)N3C(=O)[C@@H]4[C@H]3[C@H](C2)CN4C(=O)Nc2ccc(O)cc2)cc1 [9(i), sodium salt]	TRUE
COc1cc(CNC(=O)N2C[C@H]3CC(Sc4nnnn4C)=C(C(=O)O)N4C(=O)[C@@H]2[C@@H]34)on1 [3(h), sodium salt]	TRUE
Nc1nnc(SC2=C(C(=O)O)N3C(=O)[C@@H]4[C@H]3[C@H](C2)CN4C(=O)Nc2ccc(O)cc2)s1 [3(l), sodium salt]	TRUE
Cn1nnnc1SC1=C(C(=O)O)N2C(=O)[C@@H]3[C@H]2[C@H](C1)CN3C(=O)NCc1cccs1 [3(d), sodium salt]	FALSE
O=C(O)CC1=C(C(=O)O)N2C(=O)[C@@H]3[C@H]2[C@H](C1)CN3C(=O)Nc1ccc(O)cc1 [13(a), sodium salt]	TRUE

###

Tested on: E. coli 1346
PROTOCOL_TEXT: Antibacterial activity of the products per se, serial dilution method in liquid medium (Test E)
Type: cell-based
PROTOCOL_CONDITIONS: Table 4; test E, product per se
Structures can show the parent of a compound that is named as a salt.
Mark each entry True if its MIC E. coli 1346 (E) sits below 4 µg/mL, and False for all others.

COMPOUND	QUALITATIVE_LABEL
O=C(Cn1nnnc1SCC1=C(C(=O)O)N2C(=O)[C@H]3NC[C@@H](O1)[C@H]32)NCCc1ccccc1	False
Cn1nc(O)c(=O)nc1SCC1=C(C(=O)O)N2C(=O)[C@@H]3[C@H]2[C@H](C1)CN3C(=O)Nc1ccc(O)cc1	False
CC(C)(C)OC(=O)CCNC(=O)N1C[C@H]2CC(C[n+]3ccccc3)=C(C(=O)[O-])N3C(=O)[C@@H]1[C@@H]23	False
O=C(O)C1=C(Sc2ccncc2)C[C@@H]2CN(C(=O)C(F)(F)F)[C@@H]3C(=O)N1[C@H]23 [3(ai), sodium salt]	False
Cn1nc(O)c(=O)nc1SCC1=C(C(=O)O)N2C(=O)[C@H]3NC[C@@H](C1)[C@H]32	True
Cc1nnc(SCC2=C(C(=O)O)N3C(=O)[C@@H]4[C@H]3[C@H](C2)CN4C=O)s1 [65(e), sodium salt]	True
NC(=O)OCC1=C(C(=O)O)N2C(=O)[C@@H]3[C@H]2[C@H](C1)CN3C(=O)NCc1ccc(O)cc1 [27(h), sodium salt]	False
CNC(=O)OCC1=C(C(=O)O)N2C(=O)[C@@H]3[C@H]2[C@H](C1)CN3C(C)=O [98(a), sodium salt]	True
Cc1nnc(SCC2=C(C(=O)O)N3C(=O)[C@@H]4[C@H]3[C@@H](CN4C(=O)Nc3ccc(C(N)=O)cc3)O2)s1 [31(b), sodium salt]	False
NC(=O)Cn1nnnc1SCC1=C(C(=O)O)N2C(=O)[C@H]3NC[C@@H](O1)[C@H]32	False
O=C(Cn1nnnc1SCC1=C(C(=O)O)N2C(=O)[C@@H]3[C@H]2[C@H](C1)CN3C(=O)C(F)(F)F)Nc1ccc(O)cc1 [78(b), sodium salt]	True
